- experimental_system: T1, His-tagged PCSK9Δhelix (human, UniProt Q8NBP7 31-152; Q8NBP7 168-692)
- T1 construct: Construct M1-Q692 with engineered TEV site, cut by TEV protease; new N-terminus of the catalytic domain is S-A168; also called His-PCSK9Δhelix
- T1 sequence (Q8NBP7 31-152, stated change not applied, chain 1 of 2): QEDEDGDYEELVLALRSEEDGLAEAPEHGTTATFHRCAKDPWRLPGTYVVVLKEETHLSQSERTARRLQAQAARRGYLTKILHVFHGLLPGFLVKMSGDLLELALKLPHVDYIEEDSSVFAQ
- T1 sequence (Q8NBP7 other isoform, or with tags, fused parts or gaps mutant, chain 2 of 2): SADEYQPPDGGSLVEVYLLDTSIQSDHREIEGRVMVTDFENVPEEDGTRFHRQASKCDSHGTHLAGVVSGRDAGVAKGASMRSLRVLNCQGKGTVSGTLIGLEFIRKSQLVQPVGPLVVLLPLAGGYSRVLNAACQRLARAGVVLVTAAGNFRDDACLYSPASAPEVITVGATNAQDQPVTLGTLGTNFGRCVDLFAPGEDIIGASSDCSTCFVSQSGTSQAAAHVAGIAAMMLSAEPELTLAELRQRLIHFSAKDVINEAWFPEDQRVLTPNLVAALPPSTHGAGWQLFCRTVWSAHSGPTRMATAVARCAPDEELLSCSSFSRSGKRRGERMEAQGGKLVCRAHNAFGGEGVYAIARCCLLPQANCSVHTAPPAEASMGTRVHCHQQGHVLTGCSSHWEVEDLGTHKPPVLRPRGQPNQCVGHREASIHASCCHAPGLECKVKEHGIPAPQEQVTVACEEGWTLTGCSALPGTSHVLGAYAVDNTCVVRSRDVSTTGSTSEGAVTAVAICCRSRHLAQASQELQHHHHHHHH
- run_description: TR-FRET competition; His-PCSK9Δhelix, competitor Ab20
Square brackets hold non-standard residues; d marks the D form. Ends that are not written are not given here. hArg = N=C(N)NCCCC[C@H](N)C(=O)O
metric: IC50 (µM)
Field format: number, assumed µM, no unit text.

INSERT INTO measurements (binder, measured_result) VALUES
  ('WNLV[hArg]IGLLR (also: further groups not given here, Structure printed only as a drawing) [Compound 223]', 1.4);

Fill in the blank: the reported IC50 of Ac-SFAFPGWNLVRIGLLR-NH2 [Compound 154] is ____.
50

Fill in the blank: the reported IC50 of WNLVRIGLTR (also: further groups not given here, Structure printed only as a drawing) [Compound 190] is ____.
7
